Recorded pIC50 by entry
Test system: NCI-H510 multicellular tumor spheroid growth, % test/control
Test: Anticancer human tumor NCI-H510 cell line growth inhibition [Asc];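 note: spheroids exposed to agents for 7 days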
Details: curve of first compound; second compound 0.01 µM
pIC50: −log10 of the molar value.

Worked examples follow.
* CCN1CCN(Cc2ccc(Nc3ncc(F)c(-c4cc(F)c5nc(C)n(C(C)C)c5c4)n3)nc2)CC1 + CNC(C)C(=O)NC1CN(S(=O)(=O)c2cccc(S(=O)(=O)N3CCC4CCC(C(=O)NC(c5ccccc5)c5ccccc5)N4C(=O)C(NC(=O)C(C)NC)C3)c2)CCC2CCC(C(=O)NC(c3ccccc3)c3ccccc3)N2C1=O | < 6.00
* Cn1ncnc1[C@H]1c2n[nH]c(=O)c3cc(F)cc(c23)N[C@@H]1c1ccc(F)cc1 + CNC(C)C(=O)NC1CN(S(=O)(=O)c2cccc(S(=O)(=O)N3CCC4CCC(C(=O)NC(c5ccccc5)c5ccccc5)N4C(=O)C(NC(=O)C(C)NC)C3)c2)CCC2CCC(C(=O)NC(c3ccccc3)c3ccccc3)N2C1=O | < 7.00

Switching to the query record.
Requested read-out: pIC50. Entry: O=C(c1cc(Cc2n[nH]c(=O)c3ccccc23)ccc1F)N1CCN(C(=O)C2CC2)CC1 + CNC(C)C(=O)NC1CN(S(=O)(=O)c2cccc(S(=O)(=O)N3CCC4CCC(C(=O)NC(c5ccccc5)c5ccccc5)N4C(=O)C(NC(=O)C(C)NC)C3)c2)CCC2CCC(C(=O)NC(c3ccccc3)c3ccccc3)N2C1=O 5.02

Data credit: PubChem BioAssay AID1963438
